Catalogue of CC50 at 48 h readings, one per entry.
Assay: Cytotoxicity against human HepG2 cells assessed as reduction in cell viability incubated for 48 hrs by MTT assay
Format: toxicity, cell-based

O=C(CN1CCN(c2cc3c(cc2F)c(=O)c(C(=O)O)cn3C2CC2)CC1)Nc1ccc(-n2ccc(-c3ccc(F)cc3)n2)cc1 ... > 1000 µg/mL
COc1ccccc1-c1ccn(-c2ccc(NC(=O)CN3CCN(c4cc5c(cc4F)c(=O)c(C(=O)O)cn5C4CC4)CC3)cc2)n1 ... > 1000 µg/mL
O=C(CN1CCN(c2cc3c(cc2F)c(=O)c(C(=O)O)cn3C2CC2)CC1)Nc1ccc(-n2ccc(-c3ccc4c(c3)OCO4)n2)cc1 ... > 1000 µg/mL
COc1cc(-c2ccn(-c3ccc(NC(=O)CN4CCN(c5cc6c(cc5F)c(=O)c(C(=O)O)cn6C5CC5)CC4)cc3)n2)cc(OC)c1OC ... > 1000 µg/mL
COc1ccc(-c2ccn(-c3ccc(NC(=O)CN4CCN(c5cc6c(cc5F)c(=O)c(C(=O)O)cn6C5CC5)CC4)cc3)n2)cc1OC ... ≥ 592 µg/mL

Item: CC/C(=C(\c1ccccc1)c1ccc(OCCN(C)C)cc1)c1ccccc1 | CC50 at 48 h: 3.7 µg/mL

Item: O=C(CN1CCN(c2cc3c(cc2F)c(=O)c(C(=O)O)cn3C2CC2)CC1)Nc1ccc(-n2ccc(-c3ccccc3)n2)cc1 | CC50 at 48 h: > 1000 µg/mL

====

System: Pseudomonas aeruginosa
Test: Antibacterial activity against Pseudomonas aeruginosa PAO1 ATCC 15692 assessed as inhibition of bacterial growth incubated for 18 to 24 hrs by two-fold serial dilution method
Assay type: functional
Details: time 18-24 hrs
readout-type: MIC (µg/mL)
Supply the numeric figure in µg/mL, leaving out any unit text.

Illustrative cases are given below, each with its answer.
O=C(O)c1cn(C2CC2)c2cc(N3CCNCC3)c(F)cc2c1=O [CIPROFLOXACIN] ... 0.06
O=C(CN1CCN(c2cc3c(cc2F)c(=O)c(C(=O)O)cn3C2CC2)CC1)Nc1ccc(-n2ccc(-c3ccc(Br)cc3)n2)cc1 ... 128
O=C(CN1CCN(c2cc3c(cc2F)c(=O)c(C(=O)O)cn3C2CC2)CC1)Nc1ccc(-n2ccc(-c3ccc4c(c3)OCO4)n2)cc1 ... 64

Item: Cc1ccc(-c2ccn(-c3ccc(NC(=O)CN4CCN(c5cc6c(cc5F)c(=O)c(C(=O)O)cn6C5CC5)CC4)cc3)n2)cc1 | MIC: 128

====

Tested on: Pseudomonas aeruginosa
Assay: Antibacterial activity against Pseudomonas aeruginosa PAO1 ATCC 15692 assessed as inhibition of bacterial growth incubated for 18 to 24 hrs by two-fold serial dilution method
Type: functional
Settings: time 18-24 hrs
Doc: threshold 30 µg/mL (exclusive). Items with MIC beneath it return 1; others return -1.

Consider the worked cases shown below.
COc1ccc(-c2ccn(-c3ccc(NC(=O)CN4CCN(c5cc6c(cc5F)c(=O)c(C(=O)O)cn6C5CC5)CC4)cc3)n2)cc1OC ... -1
O=C(CN1CCN(c2cc3c(cc2F)c(=O)c(C(=O)O)cn3C2CC2)CC1)Nc1ccc(-n2ccc(-c3ccc(F)cc3)n2)cc1 ... -1
O=C(CN1CCN(c2cc3c(cc2F)c(=O)c(C(=O)O)cn3C2CC2)CC1)Nc1ccc(-n2ccc(-c3ccc4ccccc4c3)n2)cc1 ... 1
O=C(CN1CCN(c2cc3c(cc2F)c(=O)c(C(=O)O)cn3C2CC2)CC1)Nc1ccc(-n2ccc(-c3cccc(Cl)c3)n2)cc1 ... -1
O=C(CN1CCN(c2cc3c(cc2F)c(=O)c(C(=O)O)cn3C2CC2)CC1)Nc1ccc(-n2ccc(-c3ccc(Cl)cc3Cl)n2)cc1 ... -1

## Task Quick check: MIC of COc1ccccc1-c1ccn(-c2ccc(NC(=O)CN3CCN(c4cc5c(cc4F)c(=O)c(C(=O)O)cn5C4CC4)CC3)cc2)n1 under 30 µg/mL?
## Result -1

## Task Quick check: MIC of O=C(CN1CCN(c2cc3c(cc2F)c(=O)c(C(=O)O)cn3C2CC2)CC1)Nc1ccc(-n2ccc(-c3ccccc3)n2)cc1 under 30 µg/mL?
## Result 1

## Task Quick check: MIC of COc1ccc(-c2ccn(-c3ccc(NC(=O)CN4CCN(c5cc6c(cc5F)c(=O)c(C(=O)O)cn6C5CC5)CC4)cc3)n2)cc1 under 30 µg/mL?
## Result -1

====

System: Staphylococcus aureus
Experiment: Antibacterial activity against Staphylococcus aureus ATCC 29213 assessed as inhibition of bacterial growth incubated for 18 to 24 hrs by two-fold serial dilution method
Format: functional
Details: time 18-24 hrs
Doc: threshold 1 µg/mL (exclusive). Items with MIC beneath it return Satisfied; others return Not satisfied.

O=C(CN1CCN(c2cc3c(cc2F)c(=O)c(C(=O)O)cn3C2CC2)CC1)Nc1ccc(-n2ccc(-c3ccc4c(c3)OCO4)n2)cc1 ... Satisfied
O=C(CN1CCN(c2cc3c(cc2F)c(=O)c(C(=O)O)cn3C2CC2)CC1)Nc1ccc(-n2ccc(-c3ccc(Cl)cc3Cl)n2)cc1 ... Not satisfied
COc1ccccc1-c1ccn(-c2ccc(NC(=O)CN3CCN(c4cc5c(cc4F)c(=O)c(C(=O)O)cn5C4CC4)CC3)cc2)n1 ... Satisfied

## Task Quick check: MIC of O=C(CN1CCN(c2cc3c(cc2F)c(=O)c(C(=O)O)cn3C2CC2)CC1)Nc1ccc(-n2ccc(-c3ccc(F)cc3)n2)cc1 under 1 µg/mL?
## Result Satisfied

## Task Quick check: MIC of O=C(CN1CCN(c2cc3c(cc2F)c(=O)c(C(=O)O)cn3C2CC2)CC1)Nc1ccc(-n2ccc(-c3ccc(Br)cc3)n2)cc1 under 1 µg/mL?
## Result Not satisfied

## Task Quick check: MIC of O=C(CN1CCN(c2cc3c(cc2F)c(=O)c(C(=O)O)cn3C2CC2)CC1)Nc1ccc(-n2ccc(-c3cccc(Cl)c3)n2)cc1 under 1 µg/mL?
## Result Not satisfied

## Task Quick check: MIC of Cc1ccc(-c2ccn(-c3ccc(NC(=O)CN4CCN(c5cc6c(cc5F)c(=O)c(C(=O)O)cn6C5CC5)CC4)cc3)n2)cc1 under 1 µg/mL?
## Result Not satisfied

## Task Quick check: MIC of O=C(CN1CCN(c2cc3c(cc2F)c(=O)c(C(=O)O)cn3C2CC2)CC1)Nc1ccc(-n2ccc(-c3ccccc3)n2)cc1 under 1 µg/mL?
## Result Satisfied

## Task Quick check: MIC of COc1ccc(-c2ccn(-c3ccc(NC(=O)CN4CCN(c5cc6c(cc5F)c(=O)c(C(=O)O)cn6C5CC5)CC4)cc3)n2)cc1OC under 1 µg/mL?
## Result Satisfied

## Task Quick check: MIC of O=C(O)c1cn(C2CC2)c2cc(N3CCNCC3)c(F)cc2c1=O under 1 µg/mL?
## Result Satisfied

## Task Quick check: MIC of Cc1cc(-c2ccn(-c3ccc(NC(=O)CN4CCN(c5cc6c(cc5F)c(=O)c(C(=O)O)cn6C5CC5)CC4)cc3)n2)ccc1F under 1 µg/mL?
## Result Not satisfied

## Task Quick check: MIC of COc1cc(-c2ccn(-c3ccc(NC(=O)CN4CCN(c5cc6c(cc5F)c(=O)c(C(=O)O)cn6C5CC5)CC4)cc3)n2)cc(OC)c1OC under 1 µg/mL?
## Result Satisfied

## Task Quick check: MIC of COc1ccc(-c2ccn(-c3ccc(NC(=O)CN4CCN(c5cc6c(cc5F)c(=O)c(C(=O)O)cn6C5CC5)CC4)cc3)n2)cc1 under 1 µg/mL?
## Result Not satisfied

====

Catalogue of MIC readings, one per entry.
Test system: Pseudomonas aeruginosa
Experiment: Antibacterial activity against Pseudomonas aeruginosa PAO1 ATCC 15692 assessed as inhibition of bacterial growth incubated for 18 to 24 hrs by two-fold serial dilution method
Type: functional
Conditions: time 18-24 hrs
Supply the numeric figure in µg/mL, leaving out any unit text.

Cc1cc(-c2ccn(-c3ccc(NC(=O)CN4CCN(c5cc6c(cc5F)c(=O)c(C(=O)O)cn6C5CC5)CC4)cc3)n2)ccc1F ... 128
O=C(CN1CCN(c2cc3c(cc2F)c(=O)c(C(=O)O)cn3C2CC2)CC1)Nc1ccc(-n2ccc(-c3ccc(Cl)cc3)n2)cc1 ... 128
O=C(CN1CCN(c2cc3c(cc2F)c(=O)c(C(=O)O)cn3C2CC2)CC1)Nc1ccc(-n2ccc(-c3ccccc3Cl)n2)cc1 ... 16
O=C(CN1CCN(c2cc3c(cc2F)c(=O)c(C(=O)O)cn3C2CC2)CC1)Nc1ccc(-n2ccc(-c3cc4ccccc4o3)n2)cc1 ... 32

Item: COc1cccc(-c2ccn(-c3ccc(NC(=O)CN4CCN(c5cc6c(cc5F)c(=O)c(C(=O)O)cn6C5CC5)CC4)cc3)n2)c1 | MIC: 32

Item: COc1cc(-c2ccn(-c3ccc(NC(=O)CN4CCN(c5cc6c(cc5F)c(=O)c(C(=O)O)cn6C5CC5)CC4)cc3)n2)cc(OC)c1OC | MIC: 32
